- target: Histone-arginine methyltransferase CARM1 (Homo sapiens, UniProt Q86X55)
- Sequence (Q86X55 whole entry): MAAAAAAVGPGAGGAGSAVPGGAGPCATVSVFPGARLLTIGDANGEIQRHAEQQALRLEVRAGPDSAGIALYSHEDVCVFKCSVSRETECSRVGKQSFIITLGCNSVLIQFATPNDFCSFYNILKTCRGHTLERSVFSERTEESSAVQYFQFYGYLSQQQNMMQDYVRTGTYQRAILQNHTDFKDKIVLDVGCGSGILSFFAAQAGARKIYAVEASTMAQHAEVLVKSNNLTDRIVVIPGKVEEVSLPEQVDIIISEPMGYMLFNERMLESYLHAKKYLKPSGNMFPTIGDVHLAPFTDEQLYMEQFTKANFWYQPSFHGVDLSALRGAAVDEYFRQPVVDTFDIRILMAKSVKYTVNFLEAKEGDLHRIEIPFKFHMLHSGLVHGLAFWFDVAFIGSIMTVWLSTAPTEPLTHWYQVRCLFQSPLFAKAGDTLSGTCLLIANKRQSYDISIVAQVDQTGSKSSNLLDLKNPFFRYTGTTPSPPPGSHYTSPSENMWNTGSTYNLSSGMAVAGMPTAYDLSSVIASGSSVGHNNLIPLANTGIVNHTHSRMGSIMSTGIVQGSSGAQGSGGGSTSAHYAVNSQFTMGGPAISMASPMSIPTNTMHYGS
measurementLabel: IC50 (nM)
Reply with just the number (in nM).

// IC50 value for COc1ccc(CCNC(=O)[C@@H](N)CC[C@H](CNCc2ccccc2)C[C@H]2O[C@@H](n3cnc4c(N)ncnc43)[C@H](O)[C@@H]2O)cc1 : 1900

----------
- target: Histone-arginine methyltransferase CARM1 (Homo sapiens)
- Sequence (whole entry): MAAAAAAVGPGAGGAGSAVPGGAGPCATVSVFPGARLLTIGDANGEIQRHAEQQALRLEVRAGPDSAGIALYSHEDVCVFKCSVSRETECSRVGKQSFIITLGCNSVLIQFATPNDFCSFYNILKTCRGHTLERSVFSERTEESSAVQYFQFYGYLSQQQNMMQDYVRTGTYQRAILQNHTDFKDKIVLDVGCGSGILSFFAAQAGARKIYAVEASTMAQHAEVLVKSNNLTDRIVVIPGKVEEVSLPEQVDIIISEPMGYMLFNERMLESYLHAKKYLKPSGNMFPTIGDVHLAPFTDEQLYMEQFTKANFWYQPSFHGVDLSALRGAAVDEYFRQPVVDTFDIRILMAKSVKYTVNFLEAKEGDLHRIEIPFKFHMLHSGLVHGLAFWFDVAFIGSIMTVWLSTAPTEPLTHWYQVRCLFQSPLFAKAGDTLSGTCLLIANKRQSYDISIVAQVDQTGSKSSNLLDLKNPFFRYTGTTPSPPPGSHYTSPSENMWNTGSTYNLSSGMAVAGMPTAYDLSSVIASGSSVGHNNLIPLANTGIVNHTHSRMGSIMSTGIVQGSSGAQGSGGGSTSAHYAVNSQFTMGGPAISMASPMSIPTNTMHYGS
- experimentalDetails: Binding affinity to full length recombinant PRMT4 (unknown origin) assessed as binding constant (Kon) by surface plasmon resonance analysis
measurementLabel: K

molecule	target	K
COC(=O)c1cc(O)c2cc(NC(=O)NCCCCNC(=N)NCCC[C@H]3O[C@@H](n4cnc5c(N)ncnc54)[C@H](O)[C@@H]3O)ccc2c1	Histone-arginine methyltransferase CARM1 (Homo sapiens)	0.25 10^6/Ms
COC(=O)c1cc(O)c2cc(NC(=O)NCCCCCNC(=N)NC[C@H]3O[C@@H](n4cnc5c(N)ncnc54)[C@H](O)[C@@H]3O)ccc2c1	Histone-arginine methyltransferase CARM1 (Homo sapiens)	3.49 10^4/Ms

Lab note: COC(=O)c1cc(O)c2cc(NC(=O)NCCCCCCCNC(=N)NC[C@H]3O[C@@H](n4cnc5c(N)ncnc54)[C@H](O)[C@@H]3O)ccc2c1 gave K of 2.58 10^4/Ms

Sure, the documented K for C[S+](CCC(N)C(=O)O)C[C@H]1O[C@@H](n2cnc3c(N)ncnc32)[C@H](O)[C@@H]1O (single isomer, unassigned) is 2.9 10^5/Ms

Form: molecule = COC(=O)c1cc(O)c2cc(NC(=O)NCCCCNC(=N)NCC[C@H]3O[C@@H](n4cnc5c(N)ncnc54)[C@H](O)[C@@H]3O)ccc2c1 ; K = 2.7 10^6/Ms

Sourced from ChEMBL document CHEMBL5137016
